target: FGFR1 (Homo sapiens, UniProt P11362); construct: made in house; host or cells: E. coli derived from BL21, infected with T7 phage; assay: Kinase binding assay (kinase-tagged T7 phage, qPCR), Kd; conditions: read-out: FGFR1 (Kd nM)
Sequence (P11362 22-822): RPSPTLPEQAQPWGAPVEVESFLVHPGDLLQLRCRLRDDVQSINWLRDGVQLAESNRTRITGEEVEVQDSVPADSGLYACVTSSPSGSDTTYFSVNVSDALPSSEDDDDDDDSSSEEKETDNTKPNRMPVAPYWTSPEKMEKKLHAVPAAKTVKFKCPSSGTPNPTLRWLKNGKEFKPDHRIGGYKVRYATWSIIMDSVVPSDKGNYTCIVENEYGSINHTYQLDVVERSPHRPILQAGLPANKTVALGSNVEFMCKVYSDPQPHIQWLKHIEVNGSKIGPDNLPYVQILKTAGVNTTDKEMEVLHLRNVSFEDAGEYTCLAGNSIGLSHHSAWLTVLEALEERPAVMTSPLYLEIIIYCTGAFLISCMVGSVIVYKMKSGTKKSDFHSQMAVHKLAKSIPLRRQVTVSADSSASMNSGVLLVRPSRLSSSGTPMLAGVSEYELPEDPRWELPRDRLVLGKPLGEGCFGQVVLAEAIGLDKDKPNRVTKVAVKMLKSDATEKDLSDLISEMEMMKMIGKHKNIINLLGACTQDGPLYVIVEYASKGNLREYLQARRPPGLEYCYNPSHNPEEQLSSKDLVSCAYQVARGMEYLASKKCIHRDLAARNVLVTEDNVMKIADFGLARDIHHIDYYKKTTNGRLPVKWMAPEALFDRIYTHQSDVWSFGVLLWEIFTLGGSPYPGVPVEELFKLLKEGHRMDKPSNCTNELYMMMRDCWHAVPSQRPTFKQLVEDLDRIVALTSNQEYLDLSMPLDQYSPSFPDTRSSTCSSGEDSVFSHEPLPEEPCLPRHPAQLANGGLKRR
Give measured Kd for each item. Keep answers brief.

Chemical String	Experimental Target	Kd
COc1cc(OC(F)(F)F)cc(-c2n[nH]c3ccc(O[C@H](C)c4c(C)cnnc4C)cc23)c1	FGFR1 (Homo sapiens, UniProt P11362)	> 1000 nM

Batch of 3 compounds: report Kd for each.
1. C[C@@H](Oc1ccc2[nH]nc(-c3cnc4c(c3)N(CCO)CCO4)c2c1)c1c(Cl)cncc1Cl
2. C[C@@H](Oc1ccc2[nH]nc(-c3cnc4c(c3)N(CC(F)F)CCO4)c2c1)c1c(Cl)cncc1Cl
3. CCN1CCC2(CC1)OCc1cc(-c3n[nH]c4ccc(O[C@H](C)c5c(Cl)cncc5Cl)cc34)ccc1O2

Outgoing:
1: > 1000 nM; 2: > 1000 nM; 3: 0.1 to 100 nM
